assay method text: protein stability index of a GFP-peptide fusion (GPS, HEK-293T) (PSI 1-6); higher = more stable;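 note: 24-mer peptide tiles fused after GFP, lentivirally expressed, FACS-sorted into six equal bins by GFP/DsRed ratio, decoded by Illumina sequencing, PSI is the read-weighted mean bin number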
particulars: treatment: DMSO; c terminus: a fixed tail appended
quantity kind: protein stability index

> print(dat)
                         sequence.entry  value
 1    GRSWPSAPDDSKAQAHRIHIDPEI [PDLIM4]   4.22
 2     KVTRLKSLALDIDRDAEDQNRYLD [BET1L]   4.44
 3     SVDPIAAFCSSDEELEDSKALLYL [RBBP5]   3.94
 4    AACLLQLKGVKQACCEFLESQLDP [KLHL12]   2.97
 5   LSEEEKEELKAELVQLEDEITTLR [TPD52L1]   5.03
 6     DTHSWKSELQREMEALAAETNLLL [TEKT4]   3.25
 7     AKDEDQWTALHFAAQNGDESSTRL [RIPK4]   4.54
 8     TWEHSNLEVNKPKNRYANVIAYDH [PTPRD]   2.98
 9    LQQERQRLGQRQPPPSEPTQGPEI [DNAJC4]   5.52
10   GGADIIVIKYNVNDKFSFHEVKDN [RHOBTB3]   2.72
11    NVNSNLITWNRVVLLHGPPGTGKT [TRIP13]   2.45
12    RTVNALEIELQAQHNLRYSLENTL [KRT33B]   2.31
13    LIFSVQPKSLVRLSLEAVICFKEM [KLHDC2]   1.88
14    EARICRLLKHSNIVRLHDSISEEG [CAMK2B]   3.32
15      QNCTDEGEREAIQKSVTRSCLLEE [POP5]   5.17
16   QENYLEYRQVPGSDPARYEFLWGP [MAGEA10]   3.28
17   ATSLFVELDEEEVKAATTEPTEVE [BCL2L13]   5.48
18      GTEQSRGLGHGSTSRGGPWVGTGL [CPOX]   3.27
19     PQTPAAPPATLGEGSADTEDRKLP [EHMT1]   5.44
20     EKEKHVNQLQTKVAVLEQEIKDKD [SASS6]   5.38
21     SALTDRTSRAPSTYTYTSRPRALP [RSPH3]   4.01
22     PYIQLPSHSNITGIVEVILGETKA [TRIB1]   2.63
23    DQQNPTLGETPENSNLEEPLNPKP [ZNF449]    5.6
24    NSFRLLFDVVVILTCSLSFLLCAR [MCOLN1]   3.21
25     DGGLLSGNEKITMQNLNDRLASYL [KRT15]   3.12
26      PHKTFRKLRLFDTPHTPKSLLSKA [WEE1]   2.82
27     SPSHSPEHRRTARRTPPGQQRPHP [ELOA2]   5.06
28    PVLRFDALWQVLARDCFATGRHYW [TRIM14]    3.5
29     AGAGGSGSRISVSRSTSFRGGMGS [KRT18]   3.88
30    VNYLPQNMTQDEFKSLFGSIGDIE [ELAVL3]    3.8
31    KQAEICQLEEKLEIANEDRKHALE [CCDC89]   5.52
32      TISVNQTRVNLSSDTESTDLPSST [DLC1]   4.11
33    NFCEPQDYRPMNHEAFKDELKTFR [CDC25B]   4.04
34     VRDSDSLAESEFESAAFSQGSRSG [PHTF1]   5.15
35      RCFWLGMEGLETAEGSNSESSDDD [SDE2]   5.22
36     QVKSRQNKTNKNSVSSCDQEHQSA [SMOC2]    5.1
37    SFRELLTFFCTNATIHGAIRLVCS [SCNN1D]   2.85
38     GYFFPTSARDCKFTGNFFYNYMMG [DHCR7]   2.36
39     PELPEGHLEDWLEKRAKRLSSAPS [ZMAT5]   4.32
40      TITSEVIEKCTTPLSDDHDEKYGV [CRY1]   5.21
41     KDGKAFHPTYEEKLKLVALHKQVL [ACBD3]   2.68
42    SLASASPPLSGRSTPKLTSRSAAQ [PPFIA4]    4.5
43   ALLITLIVVATLPIPVVFVLRHFH [SLC6A17]   2.73
44  AFEESKIDEHHFVAVALRKPDGSR [AASDHPPT]   4.01
45     GVSEILLKTQMKMSLKCLAARAVR [FEM1B]   2.65
46     FDPLPPSDTIYSYVRPERLSPISH [TCF25]   3.07
47   DHYQRVKREREKEDIALNKHRSRR [RHOBTB1]   4.23
48      RAALTYTSLEITILTSQPGKEVVK [M1AP]   2.32
49     DIWSTACMAFELATGDYLFEPHSG [SRPK2]    3.2
50      EGFADGFVKALDDLHKMNHVTPPN [JUNB]   4.12
51     GVCYSESQSSASQPRLSYAEMAED [CLCN6]   5.11
52     FQARLSGNNLHNASIPEHLAYGSV [POMT2]   2.63
53      TDKVGTEAAFHPIEEYMVHVEEHF [FUT8]   4.07
